- experimental.system: Transketolase (Homo sapiens, UniProt P29401)
- Sequence (P29401 whole entry): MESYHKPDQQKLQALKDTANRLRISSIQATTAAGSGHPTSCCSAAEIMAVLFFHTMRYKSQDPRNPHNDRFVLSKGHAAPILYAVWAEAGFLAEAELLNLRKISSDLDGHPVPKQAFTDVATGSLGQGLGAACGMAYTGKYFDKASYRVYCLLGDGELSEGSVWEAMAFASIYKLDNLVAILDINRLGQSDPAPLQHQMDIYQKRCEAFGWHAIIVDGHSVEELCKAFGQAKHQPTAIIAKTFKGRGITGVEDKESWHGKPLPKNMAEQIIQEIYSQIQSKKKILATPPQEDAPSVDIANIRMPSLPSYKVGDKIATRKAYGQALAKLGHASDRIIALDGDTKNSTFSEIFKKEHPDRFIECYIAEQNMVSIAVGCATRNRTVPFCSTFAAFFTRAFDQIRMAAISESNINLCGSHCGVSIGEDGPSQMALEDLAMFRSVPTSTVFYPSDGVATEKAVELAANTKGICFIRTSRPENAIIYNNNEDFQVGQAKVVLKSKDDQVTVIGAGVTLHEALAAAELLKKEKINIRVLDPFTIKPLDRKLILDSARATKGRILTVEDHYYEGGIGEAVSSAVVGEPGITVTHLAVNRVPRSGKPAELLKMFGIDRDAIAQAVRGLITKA
- measurement.notes: Inhibition of human transketolase in HCT116 cells
pEC50: −log10 of the molar value.
readout.type: pEC50

Consider the following illustrative entries.
Returns the measured pEC50 for the input compound. Input: Cc1c(CCO)sc[n+]1Cc1ccc(C(F)(F)F)nc1N
6.80

Repeat with Cc1cncc(C[n+]2csc(CCO)c2C)c1
4.42

Repeat with Cc1ccc(C[n+]2c(Cc3cccnc3)sc(CCO)c2C)c(N)n1
6.08

Repeat with Cc1ccc(C[n+]2csc(CCCO)c2C)c(N)n1
5.89

Repeat with Cc1c(CCO)sc[n+]1Cc1ccc(C#N)nc1N
6.44

Repeat with Cc1ccc(C[n+]2c(-c3ccc4c(c3)OCO4)sc(CCO)c2C)c(N)n1
4.60

Repeat with Cc1c(CCO)sc[n+]1Cc1ccc(C(=O)c2ccccc2C(=O)O)nc1
5.51

Repeat with Cc1c(CCO)sc[n+]1Cc1cnccc1N
4.62

1 = Cc1c(CCO)sc[n+]1Cc1cc(I)cnc1N
2 = Cc1ccc(C[n+]2csc(C(O)CO)c2C)c(N)n1 (stereo not given)
Which is greater in pEC50, the first item 1 or the second item 2 ? Which one? Tell me its label.
2
(2: 6.52, 1: 6.00)

###

- experimental.system: Transketolase (Homo sapiens, UniProt P29401)
- measurement.notes: Inhibition of transketolase by TPPK/apo-TK coupled assay
pKd: −log10 of the molar value.
readout.type: pKd

Consider the following illustrative entries.
Returns the measured pKd for the input compound. Input: CC(=O)Nc1ccc(C[n+]2csc(CCO)c2C)c(N)n1
7.64

Repeat with CCc1sc(CCO)c(C)[n+]1Cc1ccc(C)nc1N
7.12

A = Cc1c(CCO)sc[n+]1Cc1ccc(N)nc1
B = Cc1ccc(C[n+]2csc(CCO)c2)c(N)n1
C = Cc1c(CCO)sc[n+]1Cc1ccc(C(F)(F)F)nc1
D = Cc1c(CCO)sc[n+]1Cc1c(C(F)(F)F)cc(C(F)(F)F)nc1N
E = Cc1c(CCO)sc[n+]1Cc1ccc(C(F)(F)F)nc1N
Arrange items by their pKd values in increasing order. Reply with the labels, ordered as the question asks.
D, C, E, B, A

###

- experimental.system: Transketolase (Homo sapiens)
- measurement.notes: Inhibition of transketolase by TPPK/apo-TK coupled assay
readout.type: Kd (nM)

Consider the following illustrative entries.
Returns the measured Kd for the input compound. Input: Cc1c(CCO)sc[n+]1Cc1ccc(C(=O)c2ccccc2C(=O)O)nc1
140

Repeat with Cc1ccc(C[n+]2csc([C@@H](O)CO)c2C)c(N)n1
27

Repeat with Cc1ccc(C[n+]2csc([C@H](O)CO)c2C)c(N)n1
28

Repeat with Cc1ccc(C[n+]2csc(CCO)c2CO)c(N)n1
25

Repeat with Cc1ccc(C[n+]2cc(CCO)sc2C)c(N)n1
36

a = Cc1ccc(C[n+]2csc(C(O)CO)c2C)c(N)n1 (configuration not stated)
b = Cc1ccc(C[n+]2csc(CCO)c2C)c(N)n1
c = Cc1ccc(C[n+]2c(C(C)O)sc(CCO)c2C)c(N)n1 (configuration not stated)
Arrange items by their Kd values in increasing order. Reply with the labels, ordered as the question asks.
b, a, c
(b: 33 nM, a: 53 nM, c: 120 nM)

P = Cc1c(CCO)sc[n+]1Cc1cnccc1N
Q = Cc1cc(C)c(C[n+]2csc(CCO)c2C)c(N)n1
R = CCc1ccc(C[n+]2csc(CCO)c2C)c(N)n1
Arrange items by their Kd values in increasing order. Reply with the labels, ordered as the question asks.
R, Q, P

###

- experimental.system: Transketolase (Homo sapiens, UniProt P29401)
- Sequence (P29401 whole entry): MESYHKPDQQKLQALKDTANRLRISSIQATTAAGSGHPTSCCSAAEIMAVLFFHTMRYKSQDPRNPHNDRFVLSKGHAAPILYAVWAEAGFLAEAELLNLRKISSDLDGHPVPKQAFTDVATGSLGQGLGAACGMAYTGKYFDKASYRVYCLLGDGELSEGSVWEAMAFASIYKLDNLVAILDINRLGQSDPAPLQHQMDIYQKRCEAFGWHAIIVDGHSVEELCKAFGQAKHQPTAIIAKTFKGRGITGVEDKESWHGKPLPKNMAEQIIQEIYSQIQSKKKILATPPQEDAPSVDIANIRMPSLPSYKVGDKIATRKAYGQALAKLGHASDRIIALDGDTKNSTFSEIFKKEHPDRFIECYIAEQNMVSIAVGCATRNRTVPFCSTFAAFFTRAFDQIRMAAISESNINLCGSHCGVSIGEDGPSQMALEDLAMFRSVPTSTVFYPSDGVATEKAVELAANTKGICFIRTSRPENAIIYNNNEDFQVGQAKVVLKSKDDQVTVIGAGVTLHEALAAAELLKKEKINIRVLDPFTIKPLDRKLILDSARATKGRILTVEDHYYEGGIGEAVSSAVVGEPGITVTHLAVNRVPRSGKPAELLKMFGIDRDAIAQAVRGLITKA
- measurement.notes: Inhibition of human transketolase in HCT116 cells
pEC50: −log10 of the molar value.
readout.type: pEC50

Consider the following illustrative entries.
Returns the measured pEC50 for the input molecule. Input: Cc1ccc(C[n+]2c(C)sc(CCO)c2C)c(N)n1
7.25

Repeat with Cc1ccc(C[n+]2csc(CCO)c2CO)c(N)n1
6.24

Repeat with Cc1ccc(C[n+]2c(C(C)O)sc(CCO)c2C)c(N)n1 (configuration not stated)
7.52

Repeat with Cc1c(CCO)sc[n+]1Cc1ccc(N)nc1
5.80

Repeat with Cc1cc(C)c(C[n+]2csc(CCO)c2C)c(N)n1
8.08

A = CCc1c(CCO)sc[n+]1Cc1ccc(C)nc1N
B = Cc1ccc(C[n+]2csc([C@@H](O)CO)c2C)c(N)n1
C = CCc1ccc(C[n+]2csc(CCO)c2C)c(N)n1
Arrange items by their pEC50 values in increasing order. Reply with the labels, ordered as the question asks.
B, A, C

P = Cc1ccc(C[n+]2csc([C@H](O)CO)c2C)c(N)n1
Q = CC(=O)OCCc1sc[n+](Cc2ccc(C)nc2N)c1C
Which is greater in pEC50, the first item P or the second item Q ? Which one? Tell me its label.
Q
(Q: 8.33, P: 7.30)

I = Cc1ccc(C[n+]2csc(CCC#N)c2C)c(N)n1
II = Cc1c(CCO)sc[n+]1Cc1ccc(C(F)(F)F)nc1
For the pair I and II , which member has the lower pEC50 number? Which one? Tell me its label.
I
(I: 5.66, II: 6.33)

###

- experimental.system: Transketolase (Homo sapiens, UniProt P29401)
- measurement.notes: Inhibition of human transketolase in HCT116 cells
pEC50: −log10 of the molar value.
readout.type: pEC50

Returns the measured pEC50 for the input molecule. Input: Cc1ccc(C[n+]2csc(CCO)c2C)c(N)n1
7.59

a = CCc1sc(CCO)c(C)[n+]1Cc1ccc(C)nc1N
b = Cc1ccc(C[n+]2cc(CCO)sc2C)c(N)n1
c = COC(=O)CCc1sc[n+](Cc2ccc(C)nc2N)c1C
d = CC(=O)Nc1ccc(C[n+]2csc(CCO)c2C)c(N)n1
Sort by pEC50, descending. Reply with the labels, ordered as the question asks.
a, b, d, c

###

- experimental.system: Transketolase (Homo sapiens)
- measurement.notes: Inhibition of transketolase by TPPK/apo-TK coupled assay
readout.type: Kd (nM)

Consider the following illustrative entries.
Returns the measured Kd for the input compound. Input: Cc1cncc(C[n+]2csc(CCO)c2C)c1
220

Repeat with Cc1c(CCO)sc[n+]1Cc1cccnc1N
36

Repeat with Cc1c(CCO)sc[n+]1Cc1ccc(Cl)nc1N
46

I = CCc1c(CCO)sc[n+]1Cc1ccc(C)nc1N
II = Cc1ccc(C[n+]2c(C)sc(CCO)c2C)c(N)n1
III = Cc1c(CCO)sc[n+]1Cc1cc(I)cnc1N
Arrange items by their Kd values in increasing order. Reply with the labels, ordered as the question asks.
II, I, III
